Source of measurements: patent US11351268B2

# experimental system: Klotho β (KLB) (Homo sapiens, UniProt Q86Z14)
# Construct: expressed in transfected cells; host or cells: HEK 293T (ATCC), pooled Zeocin-selected cells stably expressing hKLB from pcDNA3.1(+)
# Sequence (Q86Z14 1-1044): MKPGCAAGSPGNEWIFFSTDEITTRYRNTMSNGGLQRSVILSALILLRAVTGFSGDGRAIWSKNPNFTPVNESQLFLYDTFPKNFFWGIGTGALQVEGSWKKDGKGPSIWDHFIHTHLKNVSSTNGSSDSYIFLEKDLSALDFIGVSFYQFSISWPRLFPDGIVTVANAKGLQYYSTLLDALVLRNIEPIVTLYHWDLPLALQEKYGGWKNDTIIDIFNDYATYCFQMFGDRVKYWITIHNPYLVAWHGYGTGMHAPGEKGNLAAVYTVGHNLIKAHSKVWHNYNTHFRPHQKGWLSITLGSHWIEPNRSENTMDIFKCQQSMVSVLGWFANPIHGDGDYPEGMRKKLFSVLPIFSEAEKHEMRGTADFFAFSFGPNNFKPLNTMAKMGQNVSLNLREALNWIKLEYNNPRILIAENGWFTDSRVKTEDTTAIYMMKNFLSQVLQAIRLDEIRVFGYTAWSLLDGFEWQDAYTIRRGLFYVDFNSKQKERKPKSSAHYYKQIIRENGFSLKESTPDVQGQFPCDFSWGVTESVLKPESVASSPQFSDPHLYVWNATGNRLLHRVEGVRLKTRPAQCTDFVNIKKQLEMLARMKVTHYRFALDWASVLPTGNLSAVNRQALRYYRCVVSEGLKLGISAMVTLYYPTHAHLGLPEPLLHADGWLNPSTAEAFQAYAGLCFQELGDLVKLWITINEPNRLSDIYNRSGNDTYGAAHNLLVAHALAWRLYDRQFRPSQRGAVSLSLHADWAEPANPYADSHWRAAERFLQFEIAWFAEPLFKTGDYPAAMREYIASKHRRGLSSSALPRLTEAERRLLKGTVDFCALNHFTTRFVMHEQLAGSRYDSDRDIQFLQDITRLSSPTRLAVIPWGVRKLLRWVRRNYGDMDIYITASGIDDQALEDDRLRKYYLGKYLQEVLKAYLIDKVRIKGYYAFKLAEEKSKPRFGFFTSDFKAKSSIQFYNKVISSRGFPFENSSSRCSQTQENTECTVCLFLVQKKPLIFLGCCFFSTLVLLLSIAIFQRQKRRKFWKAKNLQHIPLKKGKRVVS
# test: cell-based
# Type: cell-based
# cond: Table 1; native sequence = 100% response; read-out: % max activity
No end group written: not given here.
measure: Emax (%)
Give the number; % is assumed, so skip it.

Input: Please look at PPDVGSSDPLSMVGPAQGRSPSYAS-NH2 (C-terminus assumed) [Peptide A16, PPDVGSSDPLSMVGPAQGRSPSYAS] and tell me its recorded Emax on Klotho β (KLB) (Homo sapiens, UniProt Q86Z14).
Output: 101

Input: Give the observed Emax of PPDVGSSDPLSMVGPSQGRSPAYAS-NH2 (C-terminus assumed) [Peptide A22, PPDVGSSDPLSMVGPSQGRSPAYAS] for Klotho β (KLB) (Homo sapiens, UniProt Q86Z14).
Output: 78.5

Input: Report the value of Emax obtained on Klotho β (KLB) (Homo sapiens, UniProt Q86Z14) for PPDVGSSDPLSMVGPSQGRSASYAS-NH2 (C-terminus assumed) [Peptide A21, PPDVGSSDPLSMVGPSQGRSASYAS] .
Output: 70.5

Input: Fill in: Emax on Klotho β (KLB) (Homo sapiens, UniProt Q86Z14), entry PPDVGSSDPASMVGPSQGRSPSYAS-NH2 (C-terminus assumed) [Peptide A10, PPDVGSSDPASMVGPSQGRSPSYAS]
Output: 76

Input: Return reported Emax for target or system Klotho β (KLB) (Homo sapiens, UniProt Q86Z14), item PPDVGASDPLSMVGPSQGRSPSYAS-NH2 (C-terminus assumed) [Peptide A6, PPDVGASDPLSMVGPSQGRSPSYAS] .
Output: 89.2

Input: Given PPDVGSSDPLAMVGPSQGRSPSYAS-NH2 (C-terminus assumed) [Peptide A11, PPDVGSSDPLAMVGPSQGRSPSYAS] , report its Emax on Klotho β (KLB) (Homo sapiens, UniProt Q86Z14).
Output: 98
